B1: HDV Ribozyme (parent)
chain: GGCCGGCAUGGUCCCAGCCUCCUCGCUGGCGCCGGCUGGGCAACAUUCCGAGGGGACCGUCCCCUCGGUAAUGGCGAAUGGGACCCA

Variants of: B1
test.summary: self-cleavage, relative activity (ratio to wild type); higher = more cleavage; co-transcriptional
Note to self: class labels come from recorded self-cleavage, ranges listed here: low end: < 0.1; middle: ≥ 0.1 and < 0.3; high end: ≥ 0.3

Field: example entries. Status: answers known.
{"variant.annotation": "C18A G52A", "assigned.category": "middle"}
{"variant.annotation": "C21U G80U", "assigned.category": "low end"}
{"variant.annotation": "U12C G82C", "assigned.category": "low end"}
{"variant.annotation": "C13A G29C", "assigned.category": "low end"}
{"variant.annotation": "C15U C64A", "assigned.category": "high end"}
{"variant.annotation": "C18U C49A", "assigned.category": "high end"}
{"variant.annotation": "C22A C75U", "assigned.category": "middle"}
{"variant.annotation": "U9G C57U", "assigned.category": "high end"}
{"variant.annotation": "C15G A83G", "assigned.category": "middle"}
{"variant.annotation": "C21A C49U", "assigned.category": "low end"}

Q: Bin this entry: G74U C86A
Ans: high end

Q: Same thing, different variant: G81U A83G
Ans: middle
